For each entry below, report its Th-T fluorescence, mean of three wells value.
# Tgt: Aβ42 (Homo sapiens)
# Sequence (P05067 672-713): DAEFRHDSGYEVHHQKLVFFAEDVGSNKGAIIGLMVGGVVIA
# Experiment Summary: Th-T (thioflavin-T) assay of Aβ42 aggregation
# Type: biochemical
# Test Settings: time course, reading M66
One number for each entry.

Known results for compounds:
• C=C1CC[C@H]2[C@]3(C)C[C@@H](C=C(C)C)O[C@H]3CC[C@]2(C)[C@@H]1Cc1c(O)c(C)c(C)oc1=O [Compound 5, subglutinol A] = 2.7072
• C=C1CCC2C3(C)CC(C=C(C)C)OC3CCC2(C)C1Cc1c(OC)oc(C)c(C)c1=O (centres unmarked) [Compound 23] = 4.007
• C=C1CC[C@H]2[C@]3(C)C[C@H](C=C(C)C)O[C@H]3CC[C@]2(C)[C@@H]1Cc1c(OC)oc(CO)c(C)c1=O [Compound 18] = 3.962
• C=C1CC[C@H]2[C@]3(C)C[C@H](C=C(C)C)O[C@H]3CC[C@]2(C)[C@@H]1Cc1c(O)c(C)c(C)oc1=O [Compound 6, subglutinol B] = 3.129

// next entry
For the compound C=C1CC[C@H]2[C@]3(C)C[C@H](C=C(C)C)O[C@H]3CC[C@]2(C)[C@@H]1Cc1c(OC)oc(C)c(C)c1=O [Compound 24] , report Th-T fluorescence, mean of three wells.
4.121
